Tested on: Jurkat
runDescription: Cytotoxicity against human Jurkat cells assessed as inhibition of cell viability incubated for 72 hrs by MTT assay
Format: functional, cell-based
Give measured IC50 for each item. Keep answers brief.
Please format your answer as a value with the unit trailing.

input: Suppose we examine the molecule C[C@@H](O)[C@@]12O[C@]13c1cc(O)c4c(c1N[C@H]2C#C/C=C\C#C[C@H]3O)C(=O)c1c(O)cccc1C4=O ; what IC50 value has been reported?
output: 0.24 nM

input: Suppose we examine the molecule O=C1c2ccccc2C(=O)c2c3c(cc(O)c21)[C@@]12O[C@@]1([C@H](O)CO)[C@H](C#C/C=C\C#C[C@H]2O)N3 ; what IC50 value has been reported?
output: 0.62 nM

input: Suppose we examine the molecule CO[C@@]12[C@H](COC(N)=O)C3=C(C(=O)C(C)=C(N)C3=O)N1C[C@@H]1N[C@@H]12 [MITOMYCIN] ; what IC50 value has been reported?
output: 430 nM

input: Suppose we examine the molecule O=C1c2cccc(O)c2C(=O)c2c3c(cc(O)c21)[C@@]12O[C@@]1([C@H](O)CO)[C@H](C#C/C=C\C#C[C@H]2O)N3 ; what IC50 value has been reported?
output: 0.17 nM

###

Give measured pIC50 for each item. Keep answers brief.
System: A549
runDescription: Cytotoxicity against human A549 cells assessed as inhibition of cell viability incubated for 72 hrs by MTT assay
Type: functional, cell-based
measurementSetup: A549, 72 h
Schema: pIC50 number; meaning minus log10 of the concentration expressed in molar units.

input: Suppose we examine the molecule O=C1c2ccccc2C(=O)c2c3c(cc(O)c21)[C@@]12O[C@@]1([C@H](O)CO)[C@H](C#C/C=C\C#C[C@H]2O)N3 ; what pIC50 value has been reported?
output: 8.47

input: Suppose we examine the molecule O=C1c2cccc(O)c2C(=O)c2c3c(cc(O)c21)[C@@]12O[C@@]1([C@H](O)CO)[C@H](C#C/C=C\C#C[C@H]2O)N3 ; what pIC50 value has been reported?
output: 9.62

input: Suppose we examine the molecule CO[C@@]12[C@H](COC(N)=O)C3=C(C(=O)C(C)=C(N)C3=O)N1C[C@@H]1N[C@@H]12 ; what pIC50 value has been reported?
output: 6.57

input: Suppose we examine the molecule C[C@@H](O)[C@@]12O[C@]13c1cc(O)c4c(c1N[C@H]2C#C/C=C\C#C[C@H]3O)C(=O)c1c(O)cccc1C4=O ; what pIC50 value has been reported?
output: 10.70

###

Give measured IC50 for each item. Keep answers brief.
Test system: SK-BR-3
runDescription: Cytotoxicity against human SKBR3 cells assessed as inhibition of cell viability incubated for 72 hrs by MTT assay
Type: functional, cell-based
measurementSetup: SK-BR-3, 72 h
Please format your answer as a value with the unit trailing.

input: Find the measured IC50: item CO[C@@]12[C@H](COC(N)=O)C3=C(C(=O)C(C)=C(N)C3=O)N1C[C@@H]1N[C@@H]12 , target or system SK-BR-3.
output: 1000 nM

input: Find the measured IC50: item O=C1c2cccc(O)c2C(=O)c2c3c(cc(O)c21)[C@@]12O[C@@]1([C@H](O)CO)[C@H](C#C/C=C\C#C[C@H]2O)N3 , target or system SK-BR-3.
output: 2.56 nM

input: Find the measured IC50: item C[C@@H](O)[C@@]12O[C@]13c1cc(O)c4c(c1N[C@H]2C#C/C=C\C#C[C@H]3O)C(=O)c1c(O)cccc1C4=O , target or system SK-BR-3.
output: 0.86 nM

input: Find the measured IC50: item O=C1c2ccccc2C(=O)c2c3c(cc(O)c21)[C@@]12O[C@@]1([C@H](O)CO)[C@H](C#C/C=C\C#C[C@H]2O)N3 , target or system SK-BR-3.
output: 24.2 nM
